# Study system: Interferon alpha/beta receptor 1 (Homo sapiens, UniProt P17181)
# Sequence (P17181 whole entry): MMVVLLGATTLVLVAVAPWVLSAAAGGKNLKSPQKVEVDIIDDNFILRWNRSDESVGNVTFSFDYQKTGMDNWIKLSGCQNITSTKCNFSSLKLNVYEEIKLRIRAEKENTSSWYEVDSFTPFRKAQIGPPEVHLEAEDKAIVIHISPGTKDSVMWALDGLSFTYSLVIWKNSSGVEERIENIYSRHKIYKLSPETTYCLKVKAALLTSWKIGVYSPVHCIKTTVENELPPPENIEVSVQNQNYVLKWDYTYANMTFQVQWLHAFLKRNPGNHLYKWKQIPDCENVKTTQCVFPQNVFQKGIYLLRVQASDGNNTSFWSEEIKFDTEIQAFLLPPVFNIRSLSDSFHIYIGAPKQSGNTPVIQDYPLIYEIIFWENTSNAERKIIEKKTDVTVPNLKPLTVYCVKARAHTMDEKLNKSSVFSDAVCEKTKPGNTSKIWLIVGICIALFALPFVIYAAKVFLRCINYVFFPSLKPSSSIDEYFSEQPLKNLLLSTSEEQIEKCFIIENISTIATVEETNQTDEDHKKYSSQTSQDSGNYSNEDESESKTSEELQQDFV
# Method description: Binding affinity to IFNAR (unknown origin) assessed as inhibition of interaction with IFN-alpha
Readout: pKd
To interpret pKd, take it as minus log10 of a concentration measured in moles per litre.

Value lookup for pKd; key = CNCc1ccccc1Sc1cccc2ccccc12
5.40

* * *

# Study system: TCF4/beta-catenin (Homo sapiens, UniProt P35222+Q9NQB0)
# Sequence (P35222 whole entry): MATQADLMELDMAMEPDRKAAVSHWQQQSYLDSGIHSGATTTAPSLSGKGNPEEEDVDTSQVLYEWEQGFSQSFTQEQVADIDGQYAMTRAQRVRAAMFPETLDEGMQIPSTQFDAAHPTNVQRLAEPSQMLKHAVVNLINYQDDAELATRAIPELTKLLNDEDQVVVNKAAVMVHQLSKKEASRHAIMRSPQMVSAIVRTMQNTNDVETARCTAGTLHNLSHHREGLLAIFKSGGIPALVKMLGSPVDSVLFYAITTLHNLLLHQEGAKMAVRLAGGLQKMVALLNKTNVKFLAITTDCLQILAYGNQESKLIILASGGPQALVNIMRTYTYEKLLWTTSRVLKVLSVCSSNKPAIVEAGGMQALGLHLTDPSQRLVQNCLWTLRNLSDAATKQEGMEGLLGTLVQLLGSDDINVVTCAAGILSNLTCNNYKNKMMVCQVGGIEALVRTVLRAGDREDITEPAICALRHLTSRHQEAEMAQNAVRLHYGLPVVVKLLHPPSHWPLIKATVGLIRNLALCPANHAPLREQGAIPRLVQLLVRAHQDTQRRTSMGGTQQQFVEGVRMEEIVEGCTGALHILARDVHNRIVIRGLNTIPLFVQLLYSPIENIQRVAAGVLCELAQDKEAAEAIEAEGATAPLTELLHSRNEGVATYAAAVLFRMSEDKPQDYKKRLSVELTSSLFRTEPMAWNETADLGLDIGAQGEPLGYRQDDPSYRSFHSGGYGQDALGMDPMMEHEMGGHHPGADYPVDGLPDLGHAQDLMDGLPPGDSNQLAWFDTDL
# Sequence (Q9NQB0 whole entry): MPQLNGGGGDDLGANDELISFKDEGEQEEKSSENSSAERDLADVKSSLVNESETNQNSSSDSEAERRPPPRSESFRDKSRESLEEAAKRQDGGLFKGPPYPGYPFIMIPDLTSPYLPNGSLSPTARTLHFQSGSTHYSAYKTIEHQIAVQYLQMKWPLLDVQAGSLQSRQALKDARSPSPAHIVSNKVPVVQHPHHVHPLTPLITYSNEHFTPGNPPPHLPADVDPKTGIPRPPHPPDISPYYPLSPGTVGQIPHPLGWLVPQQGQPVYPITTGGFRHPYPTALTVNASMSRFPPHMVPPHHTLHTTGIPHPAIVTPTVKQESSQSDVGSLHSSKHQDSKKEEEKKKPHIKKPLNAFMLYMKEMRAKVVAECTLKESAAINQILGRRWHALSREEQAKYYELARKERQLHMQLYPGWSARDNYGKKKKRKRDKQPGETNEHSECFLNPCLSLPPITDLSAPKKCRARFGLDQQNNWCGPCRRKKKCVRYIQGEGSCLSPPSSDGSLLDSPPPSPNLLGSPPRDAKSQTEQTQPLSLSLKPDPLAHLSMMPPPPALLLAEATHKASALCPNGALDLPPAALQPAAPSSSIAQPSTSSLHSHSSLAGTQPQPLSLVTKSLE
# Method description: Inhibition of beta-catenin/T cell factor (unknown origin)
# Format: protein-complex assay
Readout: pKi
To interpret pKi, take it as minus log10 of a concentration measured in moles per litre.

Value lookup for pKi; key = Oc1noc2cc(CCc3nn[nH]n3)ccc12
5.87

* * *

# Study system: Von Hippel-Lindau disease tumor suppressor/Elongin B/Elongin C (Homo sapiens)
# Sequence (P40337 whole entry, looked up): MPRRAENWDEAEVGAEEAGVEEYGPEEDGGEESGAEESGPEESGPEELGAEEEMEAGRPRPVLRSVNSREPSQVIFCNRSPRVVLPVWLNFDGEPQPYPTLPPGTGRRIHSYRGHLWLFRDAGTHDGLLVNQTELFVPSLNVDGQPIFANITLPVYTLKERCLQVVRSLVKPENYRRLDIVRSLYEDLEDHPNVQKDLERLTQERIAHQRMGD
# Method description: Displacement of FAM-DEALAHyp-YIPD from VHL/elongins-B/elonginC (unknown origin) by fluorescence polarization assay
Readout: pIC50
To interpret pIC50, take it as minus log10 of a concentration measured in moles per litre.

Value lookup for pIC50; key = Cc1ncsc1-c1ccc(CNC(=O)[C@@H]2C[C@@H](O)CN2C(=O)c2cccc(N)c2C)cc1
6.05
